# TESTED_TARGET: WIL-FL (Homo sapiens, UniProt P01721)
# PROTOCOL_SUMMARY: Unlabeled LC Protease Sensitivity Assay (proteinase K)
# Type: biochemical
# ASSAY_CONDITIONS: small molecule 10 μM, WIL-FL 5 μM, proteinase K 50 nM, 2 hours at 37° C.
METRIC: Protection (fold protection of LC from protease)

Use the examples below as a reference point.
| MOLECULE | OBSERVED_VALUE |
| --- | --- |
| CCN(CC)c1ccc2c(C)c(CCNC(=O)NCc3cccc(OCC(=O)OC)c3)c(=O)oc2c1 [Compound 312] | C (C ≥ 0.6) |
| CCN(CC)c1ccc2c(C)c(CCNC(=O)NCc3cccc(OCC(=O)O)c3)c(=O)oc2c1 [Compound 311] | B (3 ≤ B < 0.6) |
| Cc1cc(=O)oc2cc(N(C)CCCF)ccc12 [Compound 258] | A (A < 0.3)) |
| CCN(CC)c1ccc2c(C)c(CCOC(=O)NCc3cccc(-c4ncc[nH]4)c3)c(=O)oc2c1 [Compound 153] | C (C ≥ 0.6) |
| C=CCN(C)c1ccc2c(C)cc(=O)oc2c1 [Compound 252] | A (A < 0.3)) |
| Cc1cc(=O)oc2cc(NCc3ccccc3)ccc12 [Compound 28] | A (A < 0.3)) |
| CCN(CC)c1ccc2c(C)c(CCC(=O)NCCc3ccc(F)cc3)c(=O)oc2c1 [Compound 73] | A (A < 0.3)) |
| C#CCN(CC)c1ccc2c(C)cc(=O)oc2c1 [Compound 271] | A (A < 0.3)) |
| CCN(CC)c1ccc2c(C)c(CCOC(=O)NCc3ccncn3)c(=O)oc2c1 [Compound 90] | A (A < 0.3)) |
| CCN(CC)c1ccc2c(CCCOC(=O)NCc3cccc(-c4c[nH]cn4)c3)cc(=O)oc2c1 [Compound 304] | A (A < 0.3)) |

Value sought: Protection (fold protection of LC from protease), system WIL-FL (Homo sapiens, UniProt P01721), item CCN(CC)c1ccc2c(C)c(CCOC(=O)NCC3CCCNC3)c(=O)oc2c1 (centres unmarked) [Compound 146] . Result: B (3 ≤ B < 0.6)

Value sought: Protection (fold protection of LC from protease), system WIL-FL (Homo sapiens, UniProt P01721), item CCN(CC)c1ccc2c(C)c(CCOC(=O)NCc3ccc4[nH]ccc4c3)c(=O)oc2c1 [Compound 137] . Result: B (3 ≤ B < 0.6)

Value sought: Protection (fold protection of LC from protease), system WIL-FL (Homo sapiens, UniProt P01721), item CCN(CC)c1ccc2c(C)c(CCN3C(=O)NC4(CCN(C(=O)c5ncccn5)C4)C3=O)c(=O)oc2c1 (centres unmarked) [Compound 205] . Result: B (3 ≤ B < 0.6)

Value sought: Protection (fold protection of LC from protease), system WIL-FL (Homo sapiens, UniProt P01721), item CCN(CC)c1ccc2c(C)c(CCN3C(=O)NC4(CCN(C(=O)c5ccc(C(N)=O)cc5)C4)C3=O)c(=O)oc2c1 (centres unmarked) [Compound 199] . Result: B (3 ≤ B < 0.6)

Value sought: Protection (fold protection of LC from protease), system WIL-FL (Homo sapiens, UniProt P01721), item C#CCN(C)c1ccc2c(C)cc(=O)oc2c1 [Compound 257] . Result: A (A < 0.3))

Value sought: Protection (fold protection of LC from protease), system WIL-FL (Homo sapiens, UniProt P01721), item Cc1cc(=O)oc2cc(OC(C)c3ccc(F)cc3)ccc12 (centres unmarked) [Compound 44] . Result: A (A < 0.3))

Value sought: Protection (fold protection of LC from protease), system WIL-FL (Homo sapiens, UniProt P01721), item CCN(CC)c1ccc2c(C)c(CCN3C(=O)NC4(CCN(C(=O)c5ncccn5)CC4)C3=O)c(=O)oc2c1 [Compound 206] . Result: A (A < 0.3))

Just for reference, patent US11945806B2 is where these values come from.
